Species on record: Rattus norvegicus
assay.remarks: Open TG-GATES - Regimen: Daily Repeat
Assay type: toxicity, organism-based, Sprague-Dawley
Parameters: regimen Daily Repeat, gender Male, age 6 weeks
conditions.used: in vivo, po, 0 mg/kg, 72 h, tissue Blood, route gavage, dose level Control, time 3 day
API: label(entry) gives 1.0 if the entry's Ret is strictly smaller than 7%; on equality or larger values it gives 0.0.

Is the reported Ret for COc1ccc(O)c(C(C)(C)C)c1.COc1ccc(O)cc1C(C)(C)C [BUTYLATED HYDROXYANISOLE] strictly below 7%?
1.0

is_below(Ret, 7%) for Cn1c(=O)c2c(ncn2C)n(C)c1=O [CAFFEINE] ?
1.0

Please indicate whether the reported Ret of O=P1(N(CCCl)CCCl)NCCCO1 (stereo unspecified) [CYCLOPHOSPHAMIDE ANHYDROUS] is strictly below 7%.
1.0

Consider CS(=O)(=O)Nc1ccc([N+](=O)[O-])cc1Oc1ccccc1 [NIMESULIDE] . Does its Ret lie strictly below 7%?
0.0

Does C=CCO [ALLYL ALCOHOL] have Ret strictly under 7%?
1.0

hey, is Ret for O=C1CN(/N=C/c2ccc(-c3ccc([N+](=O)[O-])cc3)o2)C(O)=N1 [DANTROLENE] lower than 7% or not?
1.0

Lab note: Ret threshold 7%. Does this compound come in strictly under it? Cn1cnc([N+](=O)[O-])c1Sc1ncnc2nc[nH]c12 [AZATHIOPRINE]
0.0

Say whether its Ret is strictly beneath 7%. Entry: O=C1NC(=O)C(c2ccccc2)(c2ccccc2)N1 [PHENYTOIN]
0.0

Consider the compound Cc1cnc(NC(=O)C2=C(O)c3ccccc3S(=O)(=O)N2C)s1 [MELOXICAM] . Is its Ret strictly less than 7%?
1.0
